- ASSAY INFO: yeast display, Sf9 membrane polyspecificity reagent, FACS + sequencing; frameworks hold sequencing errors
QUANTITY MEASURED: polyreactivity (PSR sort gate)

Solved cases (10 shown):
SEQUENCE RECORD	QUANTITY MEASURED	READING
QVQLVESGGGLVQAGGSLRLSCAAYVSIFGDNALGWYRQAPGKEMELVAAISSDGNTNYADSVKGRFTISRDNAKNTVYLQMNSLKPEDTAVYYCAARWGYRRVRANSFYYWGQGTQVTVSS	polyreactivity (PSR sort gate)	low polyreactivity
QFQLVESGGGLVQAGGSLRLSCAASGRTLYGYAMGWYRQAPGKERELVAVISGRGGSTYYADSVKGRFTISRDNAKNTVYLQMNSLKPEDTAAYFCAAVVHQGLSVRYGYWGQGTQVTVSS	polyreactivity (PSR sort gate)	high polyreactivity
QVQLVESGGGLVQAGGSLRLTCAASGRIFYRYAMGWYRQAPWKERELVAAIRYSGGRTYYADSVKGRFTISRDNAKNTVYLQMNSLQPEDTAVYYCAADGQWYYAPFRGGDYENDYWGQGTQVTVPS	polyreactivity (PSR sort gate)	low polyreactivity
QVQLLESGGGLVQAGGSLRLSCAPSGFTFLYYAMGWYIQAPGKERELVAVISRSGGRTYYADSVKGRFTISRDNAKNTVYLLMNSLKPEDTAVYYCAAALGVALNDYWGQGTQVNVSS	polyreactivity (PSR sort gate)	high polyreactivity
QVQLVESGGGLVQAGGSLRLSCAASGRTFCTNAMGWYRQAPGKERELVAVISGSTGSTYYADSVKGRFTISRDNAKNTVYLQMNSLKPEDTAVYYCAASYRNTGRWSYRGDYWGQGTQVTVSS	polyreactivity (PSR sort gate)	high polyreactivity
QVQLVESGGGLVQAGGSLRLSCAASGRTFGPNVMGWYRQAPGKERELVAAITYSSASTYYADSVKGRFTISRDNAKNTVYLQMNSLKPEDTAVYYCAARDRYYFGGMYYWGQGTQVTVSS	polyreactivity (PSR sort gate)	low polyreactivity
QVQLVESGGGLVQAGGSLRLSCAASGFIIARNAMGWYRQAPGKERELVAAISASGGRTYYADSVKGRFTISRDNAKNTVYLKKNSLKPEDTAVYYCAAAVLRYALRFDYWGQGTQVTVSS	polyreactivity (PSR sort gate)	high polyreactivity
QVHLVESGGGLVQAGGSLRLSCAASGRTFVRYAMGWYRQAPGKERELVAAISLRGGRTYYADSVKGRFTISRDNAKNTVYLQMNSLKPEDTAVYYCAARSYPTGASYDYWGQGTQVTVSS	polyreactivity (PSR sort gate)	high polyreactivity
QVQLVESGGGLVQAGGSLRLSCAASGLTFYRYTMGWYRQAPGKERELVAAIRSSGGRTYYADSVKGRFTISRDNAKNTVYLQKNSLKPEDTAVYYCNAVRYNSVGYVYWGQGTQVTVSS	polyreactivity (PSR sort gate)	high polyreactivity
QVQLVESGGGLVQAGGSLRLSCAASGRIFRRNVMGWYRQAPGKEREMLAAIRGTGSTTYADSVKGRFTISRDNEKNTVYLQMNSLKPEDTAVYYCAAVQQGNHGFRYYYWGQGTQVTVSS	polyreactivity (PSR sort gate)	high polyreactivity

Go through the items and report each one's polyreactivity (PSR sort gate).
1. QVQLVESGGGLVQAGGSLLLSCAASGFTFGSYAMGLYRQAPGKERELVARITRGGNTYYADSVKGRFTISRDNAKNTVYLQMNSLKPVDTAVYYCNAYGRVSPLYQPYGNDAQGYYWGQGTQVTVSS
2. QVQLVESGGGLVHAGGSLRLSCAASGIIFSWYAMGWYRQAPGKERELVAAITSDGNTYYADSVKGRFTISRDNAKNTVYLQMNSLKPEDTAVYYCIARTYVRRPLGYWGQGWQVTVSS
3. QVQLVETGGGLVQAGGSLRLSCAASRSIFARNAMGWYRQAPGKERELVAAISWSGGRTYYADSVKGRFPISRVNAKNTVYLQMNSLKPEDTAVYYCATYTWWGQGTQVTVSS
4. QVQLVESAGGLVQAGGSLRLSCAASGRTFTDYVMGWYRQAPGKESELVAAITSGGGTTYYADSVKGRFTISRDNAKKTVYLQMNSLKPEDTAVYYGNAVSYRRSRYWGYVYWGQGTQVTVSS

Resp:
1: high polyreactivity; 2: high polyreactivity; 3: high polyreactivity; 4: high polyreactivity

Go through the items and report each one's polyreactivity (PSR sort gate).
1. QVQLLESGGGLVQAGGSLRISCAASGSTLRTNAMGWYRQAPGKERELVAAISTRGSSTYYADSVKGRFTISRDNSKNTVYLQMNSLKPEDTAVYYCAKDGVWYYSGTGMDYWGQGTQVTVSS
2. QVQLVESVGGLVQAGGSLRLSCAASGSTFAYNDMGWYRQAPGKERELVPDIRSGGNTNYADSVKGRFTISRDNAKNTVYLQMNSLKPEDTAVYYCATDGYRIDVYHPDYRYDYWGQGTQVTVSS
3. QVQLVESGGGLVQAGGSLRLSCAASGSTLSHYAMGWYRQAPGKERELVAAINSNGGSTYYADSVKGRFTISRDNAKNTVYLQMNSLKPEDTAVYYCNTYFRYFSFYGRPFDYWGQGTQVTVSS
4. QFQLVESGGGLVQAGGSLRLSCAASGRIFTYYAMGWYRQAPGKEWELVAAISTSGGSTYYADSVKGRFTISRDNANNTVYLQMNSLKPEDTAVYYCAKVYPPRYYRDYNYWGQGTQVTVSS
5. QVQLVESGGGLVQAGGSLRLSCAASGSIFRRYAMGWYRQAPGKERELVAVITTDGSTYYADSVKGRFTISRDNAKNTVYLQMNSLKPEDTAVYYCAADVRHYIWEYYYWGQGTQVTVSS
6. QVQLVESGRGLVQAGGSLRLSCAASGRTFDPYAMGWYRQAPGKERELVAAITSGDDTYYADSVKGRFTISRDYAKNTVYLQMNSLKPEHTAVYYCAADSFTPDYYYHDYWGQGTQVRVSS
7. QVQLVESGGGLVQAGGSLRLSCAASGSTFGFYTMGWYRPAPGKERELVAAISWSTGRTYYADSVKGRFTISRDNAKNTVYLQMNSLKPEDTAVYYCAARAVDKYRFGGRYDYWGQGTQVTVSS

Resp:
1. low polyreactivity
2. low polyreactivity
3. high polyreactivity
4. high polyreactivity
5. low polyreactivity
6. low polyreactivity
7. low polyreactivity

Every entry's value here was drawn from the nanobody polyreactivity screen of Harvey et al. (2022).
